assay: folding stability dG unfold from chymotrypsin proteolysis; higher = more stable
t means recorded folding stability dG unfold is 1 kcal/mol or above; f means it is below 1 kcal/mol.

Does the reported folding stability dG unfold for SAGGSAGGSAGPNIYVSIKWKHNNGPVTHQIPIPPNDPPEILDEMSKQPGFKVTDIEVMPSAGGSAGGSAGG [r11_692_TrROS] fall at or above the 1 kcal/mol mark?
f

Tell me whether folding stability dG unfold is at least 1 kcal/mol here: SGMIDVDLDYTTEDGRPVKVSASYDPATGVLTFKVPDNDDVIIATVTEVTTEDESVTVTLNVTRYSKELLSA [r9_587_JUSTAS]
t

Could you please find out whether SAGGSAGGKLKINNEEIGPDKSFPLKKGKEIKVYKDYVKVFVIDPKTNKKKEYTIKLEDLKKLFSAGGSAGG [r6_940_TrMRF] has folding stability dG unfold that meets 1 kcal/mol or exceeds it?
t

I'd appreciate it if you could say whether SAGGSAGGSWKIVEIEVQRFPDGMYMVEIRFPDHGMPVTVHIDPPKNKITIYFPNGRSIEIPFSAGGSAGGS [r12_88_TrROS] has folding stability dG unfold at least equal to 1 kcal/mol.
t

Hi team, for SAGGSAGGSSLLVLRELADGGVALHLIDVEPDEPVGVETVLDEFRELHPDTPPLPVLILRPDPSAGGSAGGS [r12_262_TrMRF] , is the recorded folding stability dG unfold at or above 1 kcal/mol?
f

Exam item: decide whether the reported folding stability dG unfold for SAGMTITVPGNVTVNVVITAYKFDENGNLIGPYTLVKPITVPENSTITIDLPNDEPNVVIIEIKAIPASAGG [r19_295_TrMRF] is at least 1 kcal/mol.
t

Quick check, folding stability dG unfold >= 1 kcal/mol? SAGGSAGGSAGGEEPVTFMVRIPIRRRDPDGNPEPVAEIDINVTMPPEDAERIIKELIKSAGGSAGGSAGGS [r10_574_TrROS]
f

Just for reference, the supplement of paper PMC12764529 is where these values come from.
